- Test system: UACC-257 melanoma
- ASSAY_DETAILS: NCI-60 one-dose screen, 48 h
- CONDITIONS: 10 µM unless noted
The panel holds about 83,000 compounds, 20% with a hit somewhere; the sample as a whole holds those more often. Active and inactive are the calls of the source. How the source made its calls: active means growth percent below 10; inactive means the rest.
# valid calls are active, inactive; nothing else

Please review the following examples before continuing.
* CCCCOC(=O)c1ccc(NC(=O)C(C)N2CCOCC2)cc1 (stereo not given) | inactive
* CCCCN(CCCC)CCCn1c(=O)c2sc3ncccc3c2n2nnc(-c3ccccc3)c12 | inactive
* NC(N)=N/N=C/CO | inactive

Input line: For O=C(CC1Sc2ccccc2NC1=O)NNc1ccc(F)cc1 (stereo not given) , what call appears in the results of this test?
Output line: inactive

Input line: For Cc1c(C)c2c(c(C)c1NC(=O)/C=C\C(=O)O)CCC(C)(CCCC(C)CCCC(C)CCCC(C)C)O2 (stereo not given) , what call appears in the results of this test?
Output line: inactive
